# Measured on: UniProt:Q9NYV8
# Sequence (Q9NYV8 whole entry): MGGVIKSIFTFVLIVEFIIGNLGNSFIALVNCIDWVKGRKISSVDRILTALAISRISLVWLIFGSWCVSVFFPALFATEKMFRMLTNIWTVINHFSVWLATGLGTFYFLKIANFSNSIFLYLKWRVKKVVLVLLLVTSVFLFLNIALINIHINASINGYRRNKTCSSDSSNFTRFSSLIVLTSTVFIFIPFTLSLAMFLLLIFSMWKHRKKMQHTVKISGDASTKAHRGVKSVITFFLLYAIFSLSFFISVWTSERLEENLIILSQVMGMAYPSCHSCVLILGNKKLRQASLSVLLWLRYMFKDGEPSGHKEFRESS
# Experiment: hT2R panel inhibition, transient HEK293 G16g44, agonist Aristolochic Acid 2 μM
# Assay type: cell-based
# Measurement context: HEK293, compound at 25 μM; receptor activated to EC80 with the corresponding agonist; read-out: screening result against bitter receptor 14
Readout: inhibition at 25 µM

Sample answers from the record:
Molecule	inhibition at 25 µM
COc1ccc(CN(Cc2ccoc2)S(=O)(=O)c2ccc(C(=O)O)cc2)cc1	> 80%
COc1ccc(CN(Cc2cccnc2)S(=O)(=O)c2ccc(C(=O)O)cc2)cc1	20 to 40%
CCN(Cc1ccc(OC)cc1)S(=O)(=O)c1ccc(C(=O)O)cc1	40 to 60%

State measured inhibition at 25 µM of the molecule "N#Cc1ccc(CN(Cc2ccccc2)S(=O)(=O)c2ccc(C(=O)O)cc2)cc1" with UniProt:Q9NYV8.
> 80%

Under UniProt:Q9NYV8: report inhibition at 25 µM of O=C(O)C1CCC(CN(Cc2ccc(F)cc2)S(=O)(=O)c2ccccc2)CC1 (centres unmarked) .
> 80%

Please respond with reported inhibition at 25 µM (system UniProt:Q9NYV8) for "O=C(O)c1ccc(S(=O)(=O)N(Cc2ccccc2)Cc2cccc(Cl)c2)cc1" .
> 80%

Enter recorded inhibition at 25 µM with UniProt:Q9NYV8 for "COc1ccc(CN(Cc2cccc(F)c2F)S(=O)(=O)c2ccc(C(=O)O)cc2)cc1" here.
> 80%

Look up and report inhibition at 25 µM, with UniProt:Q9NYV8 as system, for "COc1ccc(CN(Cc2ccc(OC)cc2)S(=O)(=O)c2ccc(C(=O)O)cc2)cc1"
> 80%
